tested on: Plasmodium berghei; experiment: Luciferase/luciferin-expressing antifolate-resistant parasites were used to infect a culture of HepG2 cells that were pre-incubated with compounds. Infected hepatocytes emit light due to the luciferase reaction. Assay results are presented as the percent inhibition of light emission compared to control. […]; assay type: functional; conditions: sporozoite, PBLUC_HILL_SLOPE 2.84, PBLUC_R_SQUARED 0.326, read-out: LUCIFERASE INFECTION ASSAY - IC50
attribute.measured: pIC50
Answers are plain numbers, as −log10 of the molar value.

Tell me its pIC50 given Cn1ccnc1SCC(=O)N1N=C2/C(=C/c3ccccc3)CCCC2C1c1ccccc1 (stereo unspecified) as the entry. 5.08

----------
test system: Plasmodium berghei; experiment: Luciferase/luciferin-expressing antifolate-resistant parasites were used to infect a culture of HepG2 cells that were pre-incubated with compounds. Infected hepatocytes emit light due to the luciferase reaction. Assay results are presented as the percent inhibition of light emission compared to control. […]; format: functional; details: sporozoite, FFLUC_HILL_SLOPE 1.52, FFLUC_R_SQUARED 0.302, read-out: LUCIFERASE INFECTION ASSAY - IC50
attribute.measured: IC50

Supply IC50 measured with Plasmodium berghei for O=C(O)c1ccc(Cl)cc1Oc1ccccc1 . > 13.3 µM

----------
system: Plasmodium berghei; test: Luciferase/luciferin-expressing antifolate-resistant parasites were used to infect a culture of HepG2 cells that were pre-incubated with compounds. Infected hepatocytes emit light due to the luciferase reaction. Assay results are presented as the percent inhibition of light emission compared to control. […]; assay type: functional; conditions: sporozoite, HEPG2TOX_HILL_SLOPE 2.16, HEPG2TOX_R_SQUARED 0.901, PBLUC_HILL_SLOPE 2.19, PBLUC_R_SQUARED 0.923, read-out: LUCIFERASE INFECTION ASSAY - IC50
attribute.measured: pIC50
Give bare numbers, as −log10 of the molar value.

Tell me its pIC50 given Clc1ccc(-c2cnc3cnc(-c4cccnc4)cn23)cc1 as the entry. 6.18

----------
system: Plasmodium berghei; test: Luciferase/luciferin-expressing antifolate-resistant parasites were used to infect a culture of HepG2 cells that were pre-incubated with compounds. Infected hepatocytes emit light due to the luciferase reaction. Assay results are presented as the percent inhibition of light emission compared to control. […]; type: functional; settings: sporozoite, PBLUC_HILL_SLOPE 2.25, PBLUC_R_SQUARED 0.0279, read-out: LUCIFERASE INFECTION ASSAY - IC50
attribute.measured: IC50

Tell me its IC50 given CCOc1cc(/C=C/c2nc3cc(Cl)ccc3o2)ccc1OCC(=O)N(C(C)C)C(C)C as the entry. > 10 µM

----------
tested on: Plasmodium berghei; assay: Luciferase/luciferin-expressing antifolate-resistant parasites were used to infect a culture of HepG2 cells that were pre-incubated with compounds. Infected hepatocytes emit light due to the luciferase reaction. Assay results are presented as the percent inhibition of light emission compared to control. […]; assay type: functional; conditions: sporozoite, read-out: LUCIFERASE INFECTION ASSAY - IC50
For each record, write down the corresponding IC50.

Some compounds with recorded IC50:
{"compound": "CCc1cc2c(=O)n(Cc3ccco3)c(SCC(=O)N(C)C3CCS(=O)(=O)C3)nc2s1 (stereo unspecified)", "system": "Plasmodium berghei", "IC50": "> 10 µM"}
{"compound": "Cc1cc(C)c(CSCCNC2=CC(=O)CC(c3ccc(Cl)cc3)C2)c(C)c1 (stereo unspecified)", "system": "Plasmodium berghei", "IC50": "> 7.97 µM"}
{"compound": "Cc1ccc(C(=O)NCc2ccc(-c3ccc(Cl)cc3)o2)cc1NC(=O)c1ccco1", "system": "Plasmodium berghei", "IC50": "> 10 µM"}

Hi there! I need IC50 for each item below, if you can.
1. Cc1noc(C)c1COc1ccccc1C(=O)N1CCN(S(=O)(=O)c2cccc(C(F)(F)F)c2)CC1
2. COc1cc(/C=c2\s/c(=C(/C#N)C(=O)Nc3cccc(S(=O)(=O)N4CCCCC4)c3)n(CCc3ccccc3)c2=O)ccc1OC(F)F
3. COc1ccc(/C=C(\C#N)c2n[nH]c(=O)c3ccccc23)cc1
4. COc1cc(OC)c(N2CC(C(=O)NC(C)c3ccc(F)c(F)c3)CC2=O)cc1Cl (stereo unspecified)
5. CCOC(=O)c1cnn(-c2c(Cl)cc(Cl)cc2Cl)c1-c1ccccc1
6. Cc1ccc(C(O)c2nnc(Nc3cc(C(F)(F)F)ccc3F)s2)cc1 (stereo unspecified)
7. CN(Cc1nc2ccccc2[nH]1)c1nccc(C(F)(F)F)n1

["> 10 µM", "> 10 µM", "4.17 µM", "> 10 µM", "> 8.34 µM", "> 10 µM", "> 10 µM"]

Hi there! I need IC50 for each item below, if you can.
1. CCCn1nc(C(=O)N2CC(C)CC(C)C2)ccc1=O (stereo unspecified)
2. COC(OC)c1ccc(C#N)c(SCC(=O)c2ccc(Cl)cc2)n1
3. COc1cc(OC)c(C2Nc3cc(Cl)c(S(N)(=O)=O)cc3S(=O)(=O)N2)cc1OC (stereo unspecified)
4. C=S(=O)(NC(=O)c1ccc(-c2cc(C(F)(F)F)nn2C)s1)c1ccc(C)cc1 (stereo unspecified)
5. Cc1ccc(C(=O)NC(c2ccccc2)c2ccccc2)s1
6. CCCn1c(O)nnc1SCC(=O)NC(C)C12CC3CC(CC(C3)C1)C2 (stereo unspecified)

1: > 10 µM; 2: > 9.1 µM; 3: > 10 µM; 4: > 7.72 µM; 5: > 10 µM; 6: > 10 µM
